This collection of values is drawn from patent US10703746B2.

- TARGET_ENTITY: IDH1 R132C (Homo sapiens, UniProt O75874, R132C)
- Sequence (O75874 whole entry R132C): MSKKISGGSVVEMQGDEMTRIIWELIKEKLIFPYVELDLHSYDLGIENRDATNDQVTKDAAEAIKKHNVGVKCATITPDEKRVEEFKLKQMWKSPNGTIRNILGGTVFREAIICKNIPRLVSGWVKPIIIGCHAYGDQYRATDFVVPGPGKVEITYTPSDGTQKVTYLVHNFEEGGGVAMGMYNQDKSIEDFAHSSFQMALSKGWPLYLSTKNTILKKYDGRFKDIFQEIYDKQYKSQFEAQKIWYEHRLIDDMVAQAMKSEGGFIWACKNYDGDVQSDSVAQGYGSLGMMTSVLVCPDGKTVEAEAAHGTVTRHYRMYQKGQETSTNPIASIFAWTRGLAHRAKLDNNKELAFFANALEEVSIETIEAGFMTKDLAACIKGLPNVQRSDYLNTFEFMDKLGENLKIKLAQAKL
- TEST_SUMMARY: IDH1 R132C enzymatic assay (NADPH depletion coupled to diaphorase/resazurin)
- Format: biochemical
- CONDITIONS_USED: IDH1 R132C enzymatic inhibition, IC50 class
pIC50: −log10 of the molar value.
Some compounds, each annotated with its measured pIC50.

Some solved entries appear below for comparison.
>  <COMPOUND>
CCc1cccc(CC)c1-n1c(CC(C)C)c(C(=O)N2CCN[C@H](CO)C2)cc(-c2nc(-c3ccc(Cl)cc3)cs2)c1=O

>  <TARGET_ENTITY>
IDH1 R132C (Homo sapiens, UniProt O75874, R132C)

>  <pIC50>
> 6.52

$$$$
>  <COMPOUND>
CCc1cccc(CC)c1-n1c(C=C(C)C)c(C(=O)N2CCC3(CCNC3)C2)cc(-c2nc(-c3ccc(Cl)cc3)cs2)c1=O (stereo not shown) [Compound 320]

>  <TARGET_ENTITY>
IDH1 R132C (Homo sapiens, UniProt O75874, R132C)

>  <pIC50>
> 6.52

$$$$
>  <COMPOUND>
CCOc1ccc(-c2nc(-c3cc(C(=O)N4CCNCC4)c(CC(C)C)n(-c4c(CC)cccc4CC)c3=O)sc2C)cc1

>  <TARGET_ENTITY>
IDH1 R132C (Homo sapiens, UniProt O75874, R132C)

>  <pIC50>
> 6.52

$$$$

Then there is this compound:
Fill in the blank: the reported pIC50 of CC1(C)CC(=O)c2cc(-c3nc(-c4ccc(Cl)cc4)cs3)c(=O)n(-c3ccccc3O)c2C1 is ____. 4.70 to 5.30
